measure: melting point (°C)
Answer format: numeric, °C implied, no suffix.

>>> observed("OC1CCC(Cl)CC1 (configuration not stated)")
82.5
>>> observed("CC(C)(C)I")
-38.2
>>> observed("CCCOCCC")
-122
>>> observed("c1ccc(N=C(Nc2ccccc2)Nc2ccccc2)cc1")
146

Annotate the compound CCCCCCCOC(=O)CCCCCCC with its measured melting point.
-10.6

Annotate the compound CCCCS(=O)(=O)O with its measured melting point.
-15.2

Annotate the compound O=C(O)CCCc1c[nH]c2ccccc12 with its measured melting point.
124

Annotate the compound CCCCCCCCCCCCCCCc1cccc(O)c1 with its measured melting point.
53.5

Annotate the compound CC(=O)Oc1ccc(C2(c3ccc(OC(C)=O)cc3)C(=O)Nc3ccccc32)cc1 with its measured melting point.
242

Annotate the compound Cc1cc(C)c(S(=O)(=O)Cl)c(C)c1 with its measured melting point.
56

Annotate the compound COc1ccc([C@@H]2Sc3ccccc3N(CCN(C)C)C(=O)[C@@H]2OC(C)=O)cc1 with its measured melting point.
210
